# key: entry, value: ACTIVITE DE POST-LEVEE SIN
Tested on: Sinapis alba
experiment_notes: Example B: post-emergence herbicidal application, pot test
Assay type: in vivo
details: 4000 g/ha, 576 h

>  <molecule>
CN(C)S(=O)(=O)n1nc(C(C)(C)C)nc1-c1ncccc1C(=O)O

>  <target_under_test>
Sinapis alba

>  <ACTIVITE DE POST-LEVEE SIN>
4 (10 à 30)

$$$$
>  <molecule>
CN(C)S(=O)(=O)n1nc(-c2ccccc2)nc1-c1ncccc1C(=O)O [compound 6]

>  <target_under_test>
Sinapis alba

>  <ACTIVITE DE POST-LEVEE SIN>
5 (O à 10)

$$$$
>  <molecule>
CCN(CC)S(=O)(=O)n1nc(-c2ccccc2)nc1-c1ncccc1C(=O)O

>  <target_under_test>
Sinapis alba

>  <ACTIVITE DE POST-LEVEE SIN>
2 (50 à 70)

$$$$
>  <molecule>
O=C(O)c1cccnc1-c1n[nH]c(-c2ccc(Cl)cc2Cl)n1

>  <target_under_test>
Sinapis alba

>  <ACTIVITE DE POST-LEVEE SIN>
5 (O à 10)

$$$$
>  <molecule>
O=C(O)c1cccnc1-c1nc(-c2ccccc2)nn1S(=O)(=O)N1CCCC1

>  <target_under_test>
Sinapis alba

>  <ACTIVITE DE POST-LEVEE SIN>
1 (70 à 90)

$$$$
>  <molecule>
CN(C)S(=O)(=O)n1c(-c2ncccc2C(=O)O)nc2cc(Cl)ccc21

>  <target_under_test>
Sinapis alba

>  <ACTIVITE DE POST-LEVEE SIN>
5 (O à 10)

$$$$
>  <molecule>
CN(C)S(=O)(=O)n1nc(-c2ccccc2)nc1-c1ncccc1C(=O)O [compound 1]

>  <target_under_test>
Sinapis alba

>  <ACTIVITE DE POST-LEVEE SIN>
5 (O à 10)

$$$$
>  <molecule>
Cc1ccccc1-c1nc(-c2ncccc2C(=O)O)n[nH]1

>  <target_under_test>
Sinapis alba

>  <ACTIVITE DE POST-LEVEE SIN>
1 (70 à 90)

$$$$
>  <molecule>
O=C(O)c1cccnc1-c1n[nH]c(-c2cccc(Cl)c2)n1

>  <target_under_test>
Sinapis alba

>  <ACTIVITE DE POST-LEVEE SIN>
2 (50 à 70)

$$$$
